Biological target: UniProt Q07889
Assay: SOS1 degradation assay (Western blot), NCI-H358 cells
Format: cell-based
Design: The degradation of SOS1 by the compounds was investigated on KRAS G12C mutant human non-small cell lung cancer cells NCI-H358; host or cells: NCI-H358 (human cancer cell lines)
Settings: SOS1 degradation, NCI-H358 cells, 24 h, Western blot; read-out: NCI-H358 (G12C) Dmax
Recorded Dmax for the following compounds

{"compound": "COc1cc2nc(C)nc(N[C@H](C)c3cc(-c4c(Cl)cccc4CN(C)C)cs3)c2cc1[C@H]1CC[C@H](C(=O)N2CCN(CC3CCC4(CC3)CCN(C(=O)c3ccc(C5CCC(=O)NC5=O)cc3)CC4)CC2)CC1 (stereo partly shown)", "Dmax": "50 to 80%"}
{"compound": "COc1cc2nc(C)nc(N[C@H](C)c3cc(N)cc(C(F)(F)F)c3)c2cc1[C@H]1CC[C@H](C(=O)N2CCN(CC3CCN(C(=O)COc4ccc(Cl)c(N5CCC(=O)NC5=O)c4)CC3)CC2)CC1", "Dmax": "< 30%"}
{"compound": "COc1cc2nc(C)nc(N[C@H](C)c3cc(N)cc(C(F)(F)F)c3)c2cc1OC1CCN(C(=O)C2CCN(CC3CCC4(CC3)CCN(C(=O)c3ccc(Cl)c(N5CCC(=O)NC5=O)c3)CC4)CC2)CC1", "Dmax": "80 to 100%"}
{"compound": "COc1cc2nc(C)nc(N[C@H](C)c3cc(N)cc(C(F)(F)F)c3)c2cc1[C@H]1CC[C@H](C(=O)N2CCC(CCCN(C)C3CCN(Cc4ccc(Cl)c(N5CCC(=O)NC5=O)c4)CC3)CC2)CC1", "Dmax": "< 30%"}
{"compound": "COc1cc2nc(C)nc(N[C@H](C)c3cc(-c4c(Cl)cccc4CN(C)C)cs3)c2cc1[C@H]1CC[C@H](C(=O)N2CCC(CCCC3CCN(C(=O)c4ccc(Cl)c(N5CCC(=O)NC5=O)c4)CC3)CC2)CC1", "Dmax": "50 to 80%"}
{"compound": "[2H]C1([2H])CC(OCC2CCN(C(=O)c3ccc(Cl)c(N4CCC(=O)NC4=O)c3)CC2)CC([2H])([2H])N1C(=O)[C@H]1CC[C@H](c2cc3c(N[C@H](C)c4cc(N)cc(C(F)(F)F)c4)nc(C)nc3cc2OC)CC1", "Dmax": "< 30%"}
{"compound": "CNCc1ccccc1-c1csc([C@@H](C)Nc2nc(C)nc3cc(OC)c([C@H]4CC[C@H](C(=O)N5CCN(CCC6CCC7(CC6)CCN(C(=O)c6ccc(Cl)c(N8CCC(=O)NC8=O)c6)CC7)CC5)CC4)cc23)c1", "Dmax": "80 to 100%"}

====

Target: SOS1 protein (Homo sapiens)
Sequence (Q07889 whole entry): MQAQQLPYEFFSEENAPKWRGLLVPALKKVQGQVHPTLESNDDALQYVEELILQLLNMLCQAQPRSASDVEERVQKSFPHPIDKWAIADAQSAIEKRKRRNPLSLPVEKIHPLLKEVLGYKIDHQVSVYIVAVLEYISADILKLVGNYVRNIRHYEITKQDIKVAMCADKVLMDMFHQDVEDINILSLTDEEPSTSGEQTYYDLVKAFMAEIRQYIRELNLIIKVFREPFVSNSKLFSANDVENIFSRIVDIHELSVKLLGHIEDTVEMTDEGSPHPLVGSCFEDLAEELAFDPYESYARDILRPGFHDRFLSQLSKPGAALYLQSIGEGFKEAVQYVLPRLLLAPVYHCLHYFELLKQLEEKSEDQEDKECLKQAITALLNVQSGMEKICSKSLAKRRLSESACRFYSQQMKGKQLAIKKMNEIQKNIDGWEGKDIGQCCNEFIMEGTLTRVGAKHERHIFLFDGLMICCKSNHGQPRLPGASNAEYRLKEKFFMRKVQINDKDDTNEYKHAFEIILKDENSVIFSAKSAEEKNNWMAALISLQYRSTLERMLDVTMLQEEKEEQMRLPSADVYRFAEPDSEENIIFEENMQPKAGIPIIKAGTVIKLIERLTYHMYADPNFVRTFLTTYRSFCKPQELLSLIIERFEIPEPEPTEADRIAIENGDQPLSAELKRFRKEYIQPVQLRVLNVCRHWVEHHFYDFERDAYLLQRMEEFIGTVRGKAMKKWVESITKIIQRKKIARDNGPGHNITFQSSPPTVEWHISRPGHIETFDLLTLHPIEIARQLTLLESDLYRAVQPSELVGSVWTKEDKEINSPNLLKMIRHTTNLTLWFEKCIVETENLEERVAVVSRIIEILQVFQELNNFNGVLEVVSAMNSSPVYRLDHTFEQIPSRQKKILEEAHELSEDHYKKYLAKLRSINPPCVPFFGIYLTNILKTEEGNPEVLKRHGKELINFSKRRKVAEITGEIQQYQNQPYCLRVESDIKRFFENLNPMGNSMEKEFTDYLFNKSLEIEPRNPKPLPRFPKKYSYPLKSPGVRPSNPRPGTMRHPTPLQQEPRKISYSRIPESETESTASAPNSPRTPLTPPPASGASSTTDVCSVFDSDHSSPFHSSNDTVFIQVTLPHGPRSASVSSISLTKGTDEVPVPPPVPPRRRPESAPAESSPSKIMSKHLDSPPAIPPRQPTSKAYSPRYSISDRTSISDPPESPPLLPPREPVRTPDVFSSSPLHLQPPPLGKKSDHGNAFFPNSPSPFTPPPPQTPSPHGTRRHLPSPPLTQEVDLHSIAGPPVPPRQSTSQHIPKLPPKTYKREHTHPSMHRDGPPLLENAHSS
Experiment: SOS1 degradation assay (Western blot), NCI-H358 cells
Type: cell-based
Parameters: The degradation of SOS1 by the compounds was investigated on KRAS G12C mutant human non-small cell lung cancer cells NCI-H358; host or cells: NCI-H358 (human cancer cell lines)
Conditions: SOS1 degradation, NCI-H358 cells, 24 h, Western blot; read-out: NCI-H358 (G12C) Dmax
Recorded Dmax for the following molecules

{"molecule": "COc1cc2nc(C)nc(N[C@H](C)c3cc(N)cc(C(F)(F)F)c3)c2cc1[C@H]1CC[C@H](C(=O)N2CCC(CCCC3CCN(C(=O)c4ccc(Cl)c(N5CCC(=O)NC5=O)c4)CC3)CC2)CC1", "Dmax": "50 to 80%"}
{"molecule": "Cc1nc(N[C@H](C)c2cc(N)cc(C(F)(F)F)c2)c2cc(C3CCN(CC(=O)NCCC4CCC5(CC4)CCN(C(=O)c4ccc(Cl)c(N6CCC(=O)NC6=O)c4)CC5)CC3)ccc2n1", "Dmax": "80 to 100%"}
{"molecule": "COc1cc2nc(C)nc(N[C@H](C)c3cc(N)cc(C(F)(F)F)c3)c2cc1C1=CCC(C(=O)N2CCN(CC3CCC4(CC3)CCN(C(=O)c3ccc(Cl)c(N5CCC(=O)NC5=O)c3)CC4)CC2)CC1 (some centres unmarked)", "Dmax": "80 to 100%"}
{"molecule": "COc1cc2nc(C)nc(N[C@H](C)c3cc(N)cc(C(F)(F)F)c3)c2cc1[C@H]1CC[C@H](C(=O)N2CCN(CCCCC3CCN(C(=O)c4ccc(Cl)c(N5CCC(=O)NC5=O)c4)CC3)CC2)CC1", "Dmax": "80 to 100%"}
{"molecule": "Cc1nc(N[C@H](C)c2cc(N)cc(C(F)(F)F)c2)c2cc(-c3ccn(CCCN(C)CC4CCC5(CC4)CCN(C(=O)c4ccc(Cl)c(N6CCC(=O)NC6=O)c4)CC5)c(=O)c3)c(C)cc2n1", "Dmax": "30 to 50%"}
